Each recorded value in this set is attributed to patent EP1179050B1.

biological target: catalytic subunit of murine PKA (Mus musculus); assay: Protein kinase A (PKA) activity inhibition, [γ-32P]ATP phosphocellulose paper assay
Value Type: IC50 (nM)
Only the number, expressed in nM, is required.

Example cases with answers are listed next.
N=C(N)NCCC[C@H](NC(=O)[C@H](CCCNC(=N)N)NC(=O)[C@H](CCCNC(=N)N)NC(=O)[C@H](CCCNC(=N)N)NC(=O)[C@H](CCCNC(=N)N)NC(=O)[C@H](CCCNC(=N)N)NC(=O)CCNC(=O)[C@H]1O[C@@H](n2cnc3c(N)ncnc32)[C@H](O)[C@@H]1O)C(=O)O [Inhibitor V, AdoC(β-Ala)Arg6] : 1800
C[C@H](NC(=O)CCNC(=O)CCNC(=O)[C@H]1O[C@@H](n2cnc3c(N)ncnc32)[C@H](O)[C@@H]1O)C(=O)N[C@@H](CCCNC(=N)N)C(=O)N[C@@H](CCCNC(=N)N)C(=O)N[C@@H](CCCNC(=N)N)C(=O)N[C@@H](CCCNC(=N)N)C(=O)N[C@@H](CCCNC(=N)N)C(=O)N[C@@H](CCCNC(=N)N)C(=O)O [Inhibitor I, AdoC(β-Ala )2AlaArg6] : 4300

Please look up its IC50: N=C(N)NCCC[C@H](NC(=O)[C@H](CCCNC(=N)N)NC(=O)[C@H](CCCNC(=N)N)NC(=O)[C@H](CCCNC(=N)N)NC(=O)[C@H](CCCNC(=N)N)NC(=O)[C@H](CCCNC(=N)N)NC(=O)CCCCCCCNC(=O)[C@H]1O[C@@H](n2cnc3c(N)ncnc32)[C@H](O)[C@@H]1O)C(=O)O [Inhibitor VIII, AdoC(Aoc)Arg6]
240

* * *

target: protein kinase CK2 (Rattus norvegicus); assay: Protein kinase CK2 activity inhibition, casein substrate, [γ-32P]ATP phosphocellulose paper assay; type: biochemical; conditions: 30°C, pH 7.5, 1 mg/mL casein, 30 µM [γ-32P] ATP; n. i. means no inhibition at 100 µM concentration of ligand
Sequence (P19139 whole entry): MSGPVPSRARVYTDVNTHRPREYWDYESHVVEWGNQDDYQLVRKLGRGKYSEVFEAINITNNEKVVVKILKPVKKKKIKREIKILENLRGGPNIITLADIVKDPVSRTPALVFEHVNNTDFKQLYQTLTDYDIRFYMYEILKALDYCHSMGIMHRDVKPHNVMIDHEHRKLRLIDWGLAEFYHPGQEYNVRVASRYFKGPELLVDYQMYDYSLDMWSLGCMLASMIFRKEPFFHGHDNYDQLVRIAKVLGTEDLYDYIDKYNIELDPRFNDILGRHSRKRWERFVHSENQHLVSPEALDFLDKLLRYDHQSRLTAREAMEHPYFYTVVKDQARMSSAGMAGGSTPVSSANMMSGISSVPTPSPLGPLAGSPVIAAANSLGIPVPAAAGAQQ
# IC50 values compiled below

Example cases with answers are listed next.
N=C(N)NCCC[C@H](NC(=O)[C@H](CCCNC(=N)N)NC(=O)[C@H](CCCNC(=N)N)NC(=O)[C@H](CCCNC(=N)N)NC(=O)[C@H](CCCNC(=N)N)NC(=O)[C@H](CCCNC(=N)N)NC(=O)CCCNC(=O)[C@H]1O[C@@H](n2cnc3c(N)ncnc32)[C@H](O)[C@@H]1O)C(=O)O [Inhibitor VI, AdoC(GABA)Arg6] : > 30 µM
N=C(N)NCCC[C@H](NC(=O)[C@H](CCCNC(=N)N)NC(=O)[C@H](CCCNC(=N)N)NC(=O)[C@H](CCCNC(=N)N)NC(=O)[C@H](CCCNC(=N)N)NC(=O)[C@H](CCCNC(=N)N)NC(=O)CNC(=O)[C@H]1O[C@@H](n2cnc3c(N)ncnc32)[C@H](O)[C@@H]1O)C(=O)O [Inhibitor IV, AdoCGlyArg6] : > 30 µM

Please look up its IC50: C[C@H](NC(=O)CCNC(=O)CCNC(=O)[C@H]1O[C@@H](n2cnc3c(N)ncnc32)[C@H](O)[C@@H]1O)C(=O)N[C@@H](CCCNC(=N)N)C(=O)N[C@@H](CCCNC(=N)N)C(=O)N[C@@H](CCCNC(=N)N)C(=O)N[C@@H](CCCNC(=N)N)C(=O)N[C@@H](CCCNC(=N)N)C(=O)N[C@@H](CCCNC(=N)N)C(=O)O [Inhibitor I, AdoC(β-Ala )2AlaArg6]
> 30 µM
